Each recorded value in this set is attributed to patent US7230011B2.

The reader will find reported melting point values listed item by item below.
property: melting point

{"compound": "Cc1cc(OS(=O)(=O)c2c(Cl)cccc2Cl)cc2c(C3CCN(C)CC3)c[nH]c12", "property": "melting point", "experimental.value": "179 °C"}
{"compound": "CN1CCC(c2c[nH]c3ccc(OS(=O)(=O)c4ccccc4)cc23)CC1 [Example 34]", "property": "melting point", "experimental.value": "192 to 194 °C"}
{"compound": "CCn1cc(C2CCN(C)CC2)c2cc(OS(=O)(=O)c3c(F)cccc3F)ccc21.O=C(O)C(=O)O", "property": "melting point", "experimental.value": "161 to 165 °C"}
{"compound": "CN1CCC(c2cn(Cc3ccccc3)c3ccc(OS(=O)(=O)c4c(F)cccc4F)cc23)CC1.Cl", "property": "melting point", "experimental.value": "225 to 227 °C"}
{"compound": "CN1CCC(c2c[nH]c3ccc(OS(=O)(=O)c4ccc(Cl)cc4)cc23)CC1", "property": "melting point", "experimental.value": "182 to 183.5 °C"}
{"compound": "CN1CCC(c2cn(Cc3ccc(F)cc3)c3ccc(OS(=O)(=O)c4ccccc4)cc23)CC1.O=C(O)C(=O)O", "property": "melting point", "experimental.value": "181 to 184 °C"}
{"compound": "CC(C)S(=O)(=O)n1cc(C2CCN(C)CC2)c2cc(OS(=O)(=O)c3ccccc3)ccc21.O=C(O)C(=O)O", "property": "melting point", "experimental.value": "134 to 138 °C"}
{"compound": "CN1CCC(c2c[nH]c3ccc(OS(=O)(=O)c4ccc(NS(C)(=O)=O)cc4)cc23)CC1.Cl", "property": "melting point", "experimental.value": "238 °C (dec.)"}
{"compound": "CN1CCC(c2c[nH]c3ccc(OS(=O)(=O)c4c(F)cccc4F)cc23)CC1 [47]", "property": "melting point", "experimental.value": "235 to 238 °C"}
{"compound": "CN1CCC(c2cn(CCCCc3ccccc3)c3ccc(OS(=O)(=O)c4ccccc4)cc23)CC1.Cl", "property": "melting point", "experimental.value": "158 to 161 °C"}
{"compound": "CN1CCC(c2cn(Cc3ccccc3F)c3ccc(OS(=O)(=O)c4ccccc4)cc23)CC1.Cl", "property": "melting point", "experimental.value": "222 to 224 °C"}
{"compound": "CN1CCC(c2c[nH]c3ccc(OS(=O)(=O)c4ccc(F)cc4)cc23)CC1", "property": "melting point", "experimental.value": "170 to 172 °C"}
{"compound": "CN1CC=C(c2c[nH]c3ccc(OS(=O)(=O)c4c(F)cccc4F)cc23)CC1", "property": "melting point", "experimental.value": "183 °C (dec.)"}
{"compound": "CN1CCC(c2cn(C)c3ccc(OS(=O)(=O)c4c(F)cccc4F)cc23)CC1.O=C(O)C(=O)O", "property": "melting point", "experimental.value": "195 to 198 °C (dec.)"}
{"compound": "Cc1cc(OS(=O)(=O)c2c(F)cccc2F)cc2c(C3CCN(C)CC3)cn(C)c12", "property": "melting point", "experimental.value": "139 °C"}
{"compound": "CN1CCC(c2c[nH]c3ccc(OS(=O)(=O)c4c(F)cccc4F)cc23)CC1 [Example 42]", "property": "melting point", "experimental.value": "214 to 215 °C"}
{"compound": "COc1ccc(S(=O)(=O)Oc2ccc3[nH]cc(C4CCN(C)CC4)c3c2)cc1", "property": "melting point", "experimental.value": "186 to 187 °C"}
